From: patent US10544090B2

# Test system: KB
# experiment.description: MTT cytotoxicity assay, KB (Table 2)
# Type: cell-based
# recorded.conditions: 48 h incubation, read-out: IC50 (μM) against KB
Just a reminder that ties go to n: only IC50 strictly below 9 µM counts as y.

IN: Does this compound meet the criterion IC50 < 9 µM? `O=C(CI)NCCCOCCOCCOCCCNC(=O)c1cc(O)c2c(c1)C(=O)c1cccc(O)c1C2=O`
OUT: y

IN: Consider `O=C(CCl)NCCCOCCOCCOCCCNC(=O)c1cc(O)c2c(c1)C(=O)c1cccc(O)c1C2=O` . Does its IC50 lie strictly below 9 µM?
OUT: n

IN: In plain terms, does O=C(O)c1cc(O)c2c(c1)C(=O)c1cccc(O)c1C2=O [Rhein, reference compound] come in under 9 µM for IC50?
OUT: n

IN: Item `O=C(CCl)NCCCCNC(=O)c1cc(O)c2c(c1)C(=O)c1cccc(O)c1C2=O` : IC50 beneath 9 µM, strictly?
OUT: n

IN: Is 9 µM strictly greater than the compound's reported IC50? compound: `O=C(CBr)NCCCCNC(=O)c1cc(O)c2c(c1)C(=O)c1cccc(O)c1C2=O`
OUT: y
